assay: NCI Yeast Anticancer Drug Screen. Data for the rad50 strain (AID 155);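 note: 0% = growth of vehicle-only cultures of the same strain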; settings: S. cerevisiae rad50 strain growth inhibition; at 3.7 µM
The panel holds about 79,000 compounds, 15% with a hit somewhere; the sample as a whole holds those more often. Active and inactive are the calls of the source. Cut-off read from the data, not from the text of the source: active = growth inhibition above about 70%; inactive = the rest.
Possible outcomes: active, inactive

molecule	category
CCOC(=O)CC1(C)/C(=N\Nc2ccc([N+](=O)[O-])cc2[N+](=O)[O-])CCC2C1CCC1(C)C(C(C)CCCC(C)C)CCC21 (stereo not drawn)	inactive
CCN(CC)CCNc1ccc(C)c2sc3ccc(O)cc3c(=O)c12	active
CC(C)[Si]1(C(C)C)OCC2OC(n3cnc4c(N)ncnc43)C(N)C2O[Si](C(C)C)(C(C)C)O1 (stereo not drawn)	inactive
Nc1ccc2cc(Br)ccc2c1Br	inactive
O=C(/N=N/C(=O)Oc1ccccc1)Oc1ccccc1	inactive
COc1ccc(C(C)c2cc3c(cc2OC(C)O)OCO3)cc1 (stereo not drawn)	inactive
Cc1c(C(=O)/C=C/c2ccccc2[N+](=O)[O-])[n+](=O)c2ccccc2n1[O-]	active
NC(=S)N1N=C2c3ccccc3CC[C@H]2[C@@H]1c1ccc(Cl)cc1	inactive
NC(CCCCCCCCCCCCC(N)C(=O)c1ccccc1)C(=O)c1ccccc1 (stereo not drawn)	inactive
O=C(O)c1ccccc1C(=O)OC1CCc2ccccc2C1 (stereo not drawn)	inactive
N#C/C(=C\NC(=S)Nc1ccc(S(N)(=O)=O)cc1)C(=O)c1ccc2ccccc2c1	inactive
CC(C)C(=O)CC(Sc1ccc(N)cc1)c1ccccc1 (stereo not drawn)	inactive
CCCCCCCCCCCNC=O	inactive

---

Assay: NCI Yeast Anticancer Drug Screen. Data for the rad18 strain (AID 177)
Settings: S. cerevisiae rad18 mutant growth inhibition; at 33.0 µM; stronger effect = higher value
Protocol: Growth inhibition of yeast strains with defined genetic alterations is measured as a screen for potential anti-cancer activity. Selected strains with alterations in DNA damage repair or cell cycle control were exposed to compounds and growth inhibition was measured relative to vehicle treated controls. The strain used in this assay is rad18
Compounds without any hit were thinned out: in the full panel of roughly 79,000, 15% have a hit. Residues, ends and D or L forms follow the SMILES beside them. *: point of attachment. Fmoc = O=C(OCC1c2ccccc2-c2ccccc21)*; Boc = CC(C)(C)OC(=O)*
readoutKind: growth inhibition (%)

compound	numericReadout
CCOC(=S)SSSC(=S)OCC	98
CCCCCc1c(CCCC)c(=O)[nH]c2cc(CNCC(OC)OC)ccc12	98
CCCCCCCCNCCCCCCCC	99
Cc1ccccc1NC(=O)c1c(C)oc2c1C(=O)c1ccccc1C2=O	-8
O=C(/N=N/C(=O)Oc1ccccc1)Oc1ccccc1	-58
COC(=O)C1CCCCC1C(=O)Nc1ccccc1 (configuration not stated)	-3
CCCCCCC=C(C(=O)OCC)C(=O)OCC	14
O=S(=O)(NC1CCCC(c2ccccc2)C1)c1ccccc1 (configuration not stated)	3
CC(=O)O[C@H]1CC[C@@]2(C)C(=CC[C@@H]3C2CC[C@]2(C)C(=O)NC(=O)CC32)C1 (some centres not stated)	4
COc1ccc2c3c1OC(C)C31CC(=O)CCC1CC2 (configuration not stated)	0
CC(C)CCC[C@@H](C)[C@H]1CC[C@H]2[C@@H]3CC[C@H]4C[C@H](N)CC[C@]4(C)[C@H]3CC[C@]12C	-6
Cc1cccc2c(Cl)c3cccc(C)c3nc12	6
COc1cc(C2C3=C(COC3=O)Oc3cc4c(cc32)OCO4)cc(OC)c1O (configuration not stated)	9
CCCCN(CCC#N)c1ccc(/C=C/c2ccnc3ccccc23)cc1	32
S=C1N(c2ccc(Cl)cc2)C2=C(N=Nc3ccccc3)C(=Nc3ccccc3S2)N1c1ccccn1	94
O=[N+]([O-])c1cccc2nc3ccccc3c(NCCCN3CCCCC3)c12	98
CC(C)(C)OC(=O)NCCCCC(NC(=O)C(Cc1c[nH]c2ccccc12)NC(=O)OCC1c2ccccc2-c2ccccc21)C(=O)O (configuration not stated) (Fmoc-Trp-Lys(Boc)-OH; configuration not given here)	8
COc1ccccc1/C=C\C(=O)C1COCN1 (configuration not stated)	67
CC1=CC(=C(c2ccc(N)c(C)c2)c2ccc(N)c(C)c2)C=CC1=N	35
CCCCCCCCN1COCC(COc2ccccc2C)OC1 (configuration not stated)	11
C[N+](C)([O-])CCCNc1c2ccccc2nc2cccc([N+](=O)[O-])c12	97
CC1(C)C(O)OC(O)C1(C)C (configuration not stated)	31
NC(N)=NC(N)=Nc1ccccc1 (tested in a mixture with another compound)	6
O=Cc1ccccc1C=O	26
NC(N)=NS(=O)(=O)c1ccc(Nc2c3ccccc3nc3c(C(=O)NC(CO)(CO)CO)cccc23)cc1	2
CCOC(=O)/C(=C/c1cccc(Cl)c1)N(CC)CC	35
CCCCCCCCCCCCOCCOCCOCC(N)=O	97
